Data origin: paper PMC9865144

# test.system: T1, GRAF2-SH3 (residue 728–786) (human, UniProt A1A4S6 728-786)
# T1 chain: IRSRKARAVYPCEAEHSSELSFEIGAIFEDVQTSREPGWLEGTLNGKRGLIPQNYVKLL
# experiment.description: ITC
readout.kind: Kd (µM)

{"binder": "RPPNVDLTKFHKTSS [FYB1-PRM (residue 362–376)]", "measured.value": 3.14}
